Ref: PubChem BioAssay

tgt: Dual specificity protein phosphatase 6 (Homo sapiens)
experimental_details: DUSP6 inhibitors restoring Erk phosphorylation by chemical complementation, primary imaging in DUSP6-transfected HeLa (AID 609);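 also: phospho-Erk level distribution per well compared with pooled transfected vehicle control wells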
experimental_parameters: HeLa MKP-3 transfected, phospho-Erk imaging KS statistic; at 10 µM; stronger effect = higher value; cells stimulated with TPA for 15 min
// reported inhibition for each item listed
All answers are understood in %, so give the number only.

Use the examples below as a reference point.
Qu. Data request, read-out inhibition, for CN(C1CCS(=O)(=O)C1)S(=O)(=O)c1cccc2nsnc12 (centres undefined)
Ans. -16.8

Qu. Name the reported inhibition value associated with the molecule Cc1cc(C)c(-n2c(O)c(C=NCCN3CCOCC3)c(=O)[nH]c2=O)c(C)c1
Ans. 14

Qu. Fill in: inhibition of CC(=O)C1=C(O)C(=O)N(c2cccc(C(=O)O)c2)C1c1ccccc1F (centres undefined) is ___
Ans. -9.66

Qu. Item under review: CCOC(=O)c1cc(C)n(-c2ccc(OC)c(OC)c2)c1C . Reported inhibition?
Ans. 5.57

Qu. I would be grateful if you could share the reported inhibition for Cc1cc(=O)oc(C)c1C(=O)N1CCN(Cc2ccc3c(c2)OCO3)CC1 .
Ans. 9.42

Qu. Recorded inhibition for Cc1occc(=O)c1OC(=O)Nc1ccccc1 , please?
Ans. 14

Qu. State the recorded inhibition for this entry: COCc1cc(=O)[nH]c(Nc2nc3ccc(C)cc3o2)n1
Ans. -3.97

Qu. Which inhibition reading was recorded for the molecule CC(C)CC(C(=O)O)C(C)CC(=O)Nc1ccn(-c2ccccc2)n1 (centres undefined) ?
Ans. 15.1

Next:
Qu. Reported inhibition for CCN(CC)CCNC(=O)c1c(C)oc2cc(Br)c(OC)cc12 : what is it?
Ans. 15.8
